Fold Induction (ligand-induced β-galactosidase, two-hybrid) listing for selected binders.
Target: T1, estrogen receptor (ER) α as a carboxy-terminal fusion to the Gal4-activation domain (yeast, UniProt P03372 1-595, limits assumed); also: test concentration or dose not given here
T1 sequence (looked up): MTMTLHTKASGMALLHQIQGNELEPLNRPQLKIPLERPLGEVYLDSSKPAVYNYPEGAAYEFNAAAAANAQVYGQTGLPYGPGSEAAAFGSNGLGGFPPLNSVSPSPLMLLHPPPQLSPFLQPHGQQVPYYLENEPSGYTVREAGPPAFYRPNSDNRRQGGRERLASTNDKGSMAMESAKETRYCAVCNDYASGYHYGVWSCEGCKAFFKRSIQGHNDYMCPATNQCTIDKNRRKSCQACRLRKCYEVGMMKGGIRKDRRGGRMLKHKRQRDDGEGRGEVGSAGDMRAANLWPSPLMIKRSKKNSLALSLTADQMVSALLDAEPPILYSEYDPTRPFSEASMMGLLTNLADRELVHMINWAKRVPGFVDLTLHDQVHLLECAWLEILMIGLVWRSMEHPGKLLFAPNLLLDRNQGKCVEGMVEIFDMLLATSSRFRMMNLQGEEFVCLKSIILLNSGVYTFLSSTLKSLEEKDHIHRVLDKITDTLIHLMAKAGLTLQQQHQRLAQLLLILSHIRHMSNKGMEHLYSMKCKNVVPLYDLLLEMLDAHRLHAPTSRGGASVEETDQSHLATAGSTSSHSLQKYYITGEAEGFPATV
Assay: cell-based or functional assay
Expressed in fold, but write only the number.

Could you share which Fold Induction (ligand-induced β-galactosidase, two-hybrid) value was measured for B5H10 (peptide) MKLLSSIEQACDICRLKKLKCSKEKPKCAKCLKNNWECRYSPKTKRSPLTRAHLTEVESRLERLEQLFLLIFPREDLDMILKMDSLQDIKALLTGLFVQDNVNKDAVTDRLASVETDMPLTLRQHRISATSSSEESSNKGQRQLTVSEFSPPSSLLALLLGGKSLEPLPIRYKNVKRQFTSNSRGSVDLQPS ?
4.5

Please look at the following binder next.
Could you share which Fold Induction (ligand-induced β-galactosidase, two-hybrid) value was measured for B2G1 (peptide) MKLLSSIEQACDICRLKKLKCSKEKPKCAKCLKNNWECRYSPKTKRSPLTRAHLTEVESRLERLEQLFLLIFPREDLDMILKMDSLQDIKALLTGLFVQDNVNKDAVTDRLASVETDMPLTLRQHRISATSSSEESSNKGQRQLTVSEFFRLRRLDRLLQDSFLLDLQPS ?
12

# credit: patent US20040043420A1
